# System: MCF7
# method-summary: Antiproliferative activity against human MCF7 cells assessed as inhibition of cell proliferation incubated for 72 hrs by SRB assay
# Assay type: functional, cell-based
# applied-conditions: MCF7, 72 h
value-kind: pIC50
When answering, recall that pIC50 equals minus log10 of the concentration in mol/L, and write that number alone.

Task item: Looking for the measured pIC50 of COc1c(C)c(O)c2c(=O)cc(-c3ccc(O)cc3)oc2c1C , can you help?
Reply: 4.83
